Every entry's value here was drawn from the supplement of paper PMC13380429.

- System: HepG2
- method: cell viability relative to DMSO; higher = less toxic
- condition.parameters: 72 h; 1000 nM
readout.label: cell viability (%)
One number for each entry, in %.

{"columns": ["compound", "cell viability (%)"],
 "data": [
  ["CNC(=O)[C@H]1O[C@@H](n2cnc3c(NCc4cccc(I)c4)nc(Cl)nc32)[C@H](O)[C@@H]1O", 106]
]}

Look at each compound and report its cell viability.
1. CNC(=O)[C@H](Cc1c[nH]c2ccccc12)NC(=O)[C@@H](CC(=O)NO)CC(C)C
2. NC(=O)N1c2ccccc2C=Cc2ccccc21 [carbamazepine]
3. CC(C)(C)C(=O)OCOC(=O)[C@@H]1N2C(=O)C[C@H]2S(=O)(=O)C1(C)C
4. CC(C)(C)Nc1nc(Nc2ccc(C(N)=O)cc2)cc(N)c1C#N
5. CCCN[C@H]1CCc2nc(N)sc2C1 [pramipexole]
6. CCCC(=O)Nc1ncnc2c1ncn2[C@@H]1O[C@@H]2COP(=O)(O)O[C@H]2[C@H]1OC(=O)CCC
7. CC(C)=CCC/C(C)=C/CNCCNC1C2CC3CC(C2)CC1C3 (centres undefined)
8. CCCC[C@@]1(C2CCCC2)Cc2cc(OCCCC(=O)O)c(Cl)c(Cl)c2C1=O

a:
1: 90.5; 2: 98.6; 3: 105; 4: 66.2; 5: 99.3; 6: 99; 7: 103; 8: 92.5

====

Would you mind telling me the reported cell viability of each entry?
- Tested on: Caco-2
- method: cell viability relative to DMSO; higher = less toxic
- condition.parameters: 72 h; 1000 nM
Answers are plain numbers, in %.

{"columns": ["compound", "readout.label", "value.measured"],
 "data": [
  ["CCNC1(C(N)=O)CCN(c2ncnc3c2nc(-c2ccccc2Cl)n3-c2ccc(Cl)cc2)CC1 [CP-945,598]", "cell viability", 80.7],
  ["O=C(/C=C/c1ccc2ccc(C(F)(F)F)cc2n1)c1ccncc1 [PFK-158]", "cell viability", 92.3],
  ["COc1cc(F)c(C(C)C)cc1-c1ccc(C(F)(F)F)cc1CN1C(=O)O[C@H](c2cc(C(F)(F)F)cc(C(F)(F)F)c2)[C@@H]1C [anacetrapib]", "cell viability", 96.1]
]}

q: Notebook entry, Caco-2 assay: cell viability of CCCS(=O)(=O)Nc1ccc(F)c(C(=O)c2c[nH]c3ncc(-c4ccc(Cl)cc4)cc23)c1F [vemurafenib] = ?
a: 107

====

- Test system: U2OS
- method: cell viability relative to DMSO; higher = less toxic
- condition.parameters: 72 h; 1 nM
readout.label: cell viability (%)
One number for each entry, in %.

{"columns": ["compound", "scale.unit", "cell viability"],
 "data": [
  ["O=C(O)c1ccccc1Nc1cc(Cl)ccc1C(=O)O [lobenzarit]", "%", 91.3],
  ["COc1ccc(C[C@H]2NC[C@H](O)[C@H]2OC(C)=O)cc1 [anisomycin]", "%", 103],
  ["COC1CCN(c2cccc(-c3cc(NC(C)=O)nc(-n4nc(C)cc4C)n3)n2)CC1 [TC-G-1004]", "%", 105],
  ["CC1=C(C(=O)O)N2C(=O)[C@@H](NC(=O)[C@H](N)C3=CCC=CC3)[C@H]2SC1 [cephradine]", "%", 96.4],
  ["CC(C)(C)C(=O)OCOP(=O)(COCCn1cnc2c(N)ncnc21)OCOC(=O)C(C)(C)C [adefovir-dipivoxil]", "%", 96.2],
  ["Cc1cn(C[C@H](N)C(=O)O)c(=O)n(Cc2ccsc2C(=O)O)c1=O [UBP-310]", "%", 98.8],
  ["CCCC[N+]1(C)[C@@H]2C[C@@H](OC(=O)[C@H](CO)c3ccccc3)C[C@H]1[C@@H]1O[C@@H]12 (stereo partly specified) [butylscopolamine-bromide]", "%", 99.1],
  ["N[C@@H](Cc1cc(-c2ccc(Cl)cc2Cl)cc(CP(=O)(O)O)c1O)C(=O)O [SDZ-220-040]", "%", 105],
  ["c1ccc2c(c1)CCCc1cc(NCCN3CCOCC3)nnc1-2", "%", 97.1],
  ["O=c1cc(N2CCN(c3cccc(C(F)(F)F)c3)CC2)[nH]c(=O)n1C1CCCCC1 [ML179]", "%", 101]
]}

Kindly review the next compound as well.
q: GET /values?readout=cell viability&item= C[C@@H](Oc1cc(-n2cnc3ccc(CN4CCN(C)CC4)cc32)sc1C(N)=O)c1ccccc1C(F)(F)F
a: 104
